assay.target: Endonuclease 8-like 2 (Homo sapiens)
recorded.conditions: Compound Concentration 10.0 uM, Hit No

| compound | assay.target | inhibition (%) |
| --- | --- | --- |
| Cc1csc(NC(=O)c2cc(F)cc(Oc3cncnc3)c2)n1 | Endonuclease 8-like 2 (Homo sapiens) | 3.51 |
| Clc1ccc(-c2nc3sccn3c2/C=N/OCc2ccc(Cl)c(Cl)c2)cc1 | Endonuclease 8-like 2 (Homo sapiens) | 2.57 |
| O=S1(=O)NCN(C2CC2)c2ccc(F)cc21 | Endonuclease 8-like 2 (Homo sapiens) | 8.57 |
| O=C(O)COc1cccc(CN(Cc2ccc(-n3cccn3)cc2)S(=O)(=O)c2cccnc2)c1 | Endonuclease 8-like 2 (Homo sapiens) | -7.47 |
| COc1ccc(CC(=O)NCc2ccccc2-c2ccccc2C(=O)NCc2ccc(F)cc2F)cc1 | Endonuclease 8-like 2 (Homo sapiens) | 2.71 |
| COc1cc(Nc2ccc([N+](=O)[O-])cc2C(=O)O)cc2ccccc12 | Endonuclease 8-like 2 (Homo sapiens) | 5.25 |
| O=C(NCc1ccc(F)cc1)N1CCN2C(=O)OC(c3ccccc3)(c3ccccc3)C2C1 (stereo not given) | Endonuclease 8-like 2 (Homo sapiens) | 9.75 |
| CCC(F)(F)c1cc(N2CCC(S(C)(=O)=O)CC2)nc2sc(C(N)=O)c(N)c12 | Endonuclease 8-like 2 (Homo sapiens) | -1.2 |
| Cc1cc(C)cc(C(=O)N(C)[C@H](Cc2ccc(-c3ccccc3)cc2)C(=O)N[C@@H](Cc2c[nH]c3ccccc23)C(=O)O)c1 | Endonuclease 8-like 2 (Homo sapiens) | 12.5 |
| Cc1cc([C@@H](C)Nc2ccccc2C(=O)O)c2nc(N3CCOCC3)cc(=O)n2c1 | Endonuclease 8-like 2 (Homo sapiens) | 2.93 |

----------
Each entry below lists one item and its recorded inhibition value.
assay.target: Endonuclease 8-like 2 (Homo sapiens) (UniProt Q969S2);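 note: fluorescence at 594 nm reports NEIL2 cutting and release of a quenched double-stranded DNA oligo substrate, reduced signal read as inhibition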
Sequence (Q969S2 whole entry): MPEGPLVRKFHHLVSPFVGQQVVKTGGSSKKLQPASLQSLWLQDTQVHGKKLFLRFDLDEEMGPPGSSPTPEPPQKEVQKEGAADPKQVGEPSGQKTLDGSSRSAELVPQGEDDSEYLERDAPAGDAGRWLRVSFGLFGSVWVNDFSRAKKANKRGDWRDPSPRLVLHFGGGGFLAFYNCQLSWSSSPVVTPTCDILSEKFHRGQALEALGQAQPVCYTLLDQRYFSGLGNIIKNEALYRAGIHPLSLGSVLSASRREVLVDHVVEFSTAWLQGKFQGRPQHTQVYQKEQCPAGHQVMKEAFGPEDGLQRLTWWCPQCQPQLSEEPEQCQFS
recorded.conditions: Compound Concentration 10.0 uM, Hit No

| molecule.smiles | unit.annotation | inhibition |
| --- | --- | --- |
| CCCCCCCCCCCCCCCCOC[C@H](COP(=O)([O-])OCC[N+](C)(C)C)OC(C)=O | % | -9.72 |
| CNC(=O)c1cc(C(=O)N[C@H]2[C@@H]3COC[C@@H]32)cc2c1O[C@@H](CF)[C@@H]2c1ccccc1 | % | 8.44 |
| Cc1nc[nH]c1CCN | % | -3.73 |
| Cc1ccccc1C#Cc1ccc(CCC(=O)O)cc1 | % | 1.69 |

----------
assay.target: G/T mismatch-specific thymine DNA glycosylase (Homo sapiens) (UniProt Q13569);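 note: human TDG cleavage of quenched duplex DNA oligonucleotides coupled to APE1, strand release read as fluorescence at 594 nm, inhibition of TDG activity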
Sequence (Q13569 whole entry): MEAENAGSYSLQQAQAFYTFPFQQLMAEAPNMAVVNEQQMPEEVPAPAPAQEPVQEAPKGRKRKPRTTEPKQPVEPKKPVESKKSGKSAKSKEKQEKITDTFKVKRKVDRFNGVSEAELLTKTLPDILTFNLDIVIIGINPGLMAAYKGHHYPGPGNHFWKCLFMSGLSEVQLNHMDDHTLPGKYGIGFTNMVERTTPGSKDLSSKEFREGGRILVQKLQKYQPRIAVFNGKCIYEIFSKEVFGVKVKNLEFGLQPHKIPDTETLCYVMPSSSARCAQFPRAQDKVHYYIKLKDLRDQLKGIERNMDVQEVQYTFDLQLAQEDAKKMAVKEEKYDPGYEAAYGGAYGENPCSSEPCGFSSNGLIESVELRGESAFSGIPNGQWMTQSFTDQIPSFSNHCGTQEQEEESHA
recorded.conditions: Compound Concentration 10.0 uM, Hit No
Each entry below lists one item and its recorded inhibition value.
observable: inhibition (%)

| compound | unit.annotation | measured.value |
| --- | --- | --- |
| O=C(O)[C@@H]1[C@@H](Cn2nnc3ccccc3c2=O)CC[C@H]1C(=O)c1ccc(OCCC2CCOCC2)cc1 | % | 49.2 |
| CCC(C)N(C)C(=O)c1cc2ccccc2c(-c2ccccc2Cl)n1 (centres undefined) | % | 99.2 |
| O=C1CC[C@@]2(O)[C@H]3Cc4ccc(O)c5c4[C@@]2(CCN3CC2CC2)[C@H]1O5 | % | 27.8 |
| Cc1ccc2[nH]c(CNCCCc3ccncc3)cc(=O)c2c1 | % | 35.6 |
| CC1=C2C[C@H]3[C@@H](CC=C4C[C@@H](O)CC[C@@]43C)[C@@H]2CC[C@]12O[C@@H]1C[C@H](C)CN[C@H]1[C@H]2C | % | 5.99 |
| Nc1nc(CC(=O)Nc2ccc(CCNC[C@H](O)c3ccccc3)cc2)cs1 | % | 2.71 |
| C=C(C)[C@H]1CN[C@H](C(=O)O)[C@H]1CC(=O)O | % | -2.38 |
| Cc1cccc([C@H]2CC[C@@H](N3CCN(c4cccnc4)CC3)CC2)c1 (mixture of isomers) | % | 47.1 |
| COc1cc(C(=O)NS(=O)(=O)c2ccccc2C)ccc1Cc1cn(C)c2ccc(NC(=O)OC3CCCC3)cc12 | % | 61.3 |
